Record form. Attribute: melting point. Fill in for each entry.

Query: melting point; subject: Clc1ccc2c(N3CCNCC3)n[nH]c2c1
135 to 137 °C

One more compound: CCC=C(c1ccccc1N1CCCC(C)(C)C1)C(C(N)=O)c1ccc(C(=O)OCC)cc1 (stereo unspecified)
113 to 116 °C

One more compound: FC(F)(F)C(c1ccc(Cl)cc1)C(Br)c1ccccc1 (stereo unspecified)
143 to 146 °C

One more compound: O=C(CN1CC(O)CC1=O)Oc1ccc(Cl)c(Cl)c1Cl (stereo unspecified)
84 to 86 °C

One more compound: O=C1c2sccc2-n2cncc2[C@@H]2CCCN12
228 to 230 °C

One more compound: COc1cc2c(cc1OC)-c1cc(=O)[nH]c(=O)n1CC2
323 to 325 °C

One more compound: ClCCCOc1ccc(-c2cnc(CSCCOc3ccccc3)o2)cc1
71 to 73 °C

One more compound: c1ccc(-c2cn3ncsc3n2)cc1
127 to 130 °C

One more compound: CN(C)CCC(Oc1ccc(NS(C)(=O)=O)cc1)c1ccccc1 (stereo unspecified)
145 to 147 °C

One more compound: COc1cccc(S(=O)(=O)c2ccc3[nH]c(C)c(CCNC(=O)OC(C)(C)C)c3c2)c1
170 to 173 °C

One more compound: Fc1ccc(Cl)c2sc(CBr)cc12
89 to 90 °C

* * *

measurement-name: melting point

Query: melting point; subject: Cc1cc2c3c(cc(C)c2[nH]c1=O)CC(C)(CN=[N+]=[N-])O3 (stereo not drawn)
232 to 234 °C

One more compound: CCC1(c2cn(-c3c(Cl)cc(C(F)(F)F)cc3Cl)nc2C#N)CC1(Br)Br (stereo not drawn)
107 to 108 °C

One more compound: CN(C)CC1CN(c2ccccc2)NC1=N (stereo not drawn)
117 to 118 °C

One more compound: COc1ccc(C(=O)N2CCCC2=O)cc1OC(=O)c1ccccc1
90.5 to 91 °C

One more compound: Cc1c(CO)ncnc1N1CCOCC1
66 to 68 °C

One more compound: COc1ccc(CNc2ncnc3c2ncn3C2OC(CO)C(O)C2O)cc1 (stereo not drawn)
148 °C

One more compound: O=C(O)COCCCCSc1cnc(-c2ccccc2)c(-c2ccccc2)n1
86 to 88 °C

One more compound: Fc1ccc(CNc2nc(OCc3ccccc3)nc(OCC(F)(F)F)n2)cc1
101 to 103 °C

One more compound: COC(=O)c1cc(C(=O)OC)cc(-c2cc(C(=O)OC)cc(C(=O)OC)c2)c1
214 to 215 °C

One more compound: CCC(=O)NC[C@H]1CN(c2ccc3c(c2)C[C@@H](C)N3C(=O)OCc2ccccc2)C(=O)O1
181 to 183 °C

One more compound: CC1(C)CC(C)(c2ccc(Oc3ccc([N+](=O)[O-])cc3)cc2)c2cc(Oc3ccc([N+](=O)[O-])cc3)ccc21 (stereo not drawn)
214 to 216 °C

One more compound: Cc1ccc2nc(-c3ccccc3)oc2c1
93 °C

One more compound: N#Cc1ccc(Oc2ccc([N+](=O)[O-])c(Oc3ccccc3)c2Cl)cc1
140 to 142 °C

One more compound: CC(C)(C)OC(=O)NNc1ccc([N+](=O)[O-])cn1
132 to 134 °C

One more compound: COc1cc(Br)ccc1-c1ccc(Br)cc1N
94.5 to 97 °C

One more compound: CCN(CC)S(=O)(=O)c1ccc(C#CC(C)(O)C(F)(F)F)cc1 (stereo not drawn)
140 to 144 °C

One more compound: O=C(O)Cc1cccc(Cc2nc3c(F)c(F)ccc3s2)c1
154 to 155 °C

One more compound: COCC1CN(CCOc2ccc(NC(=O)Nc3cc(C(C)(C)C)nn3-c3ccc(C)cc3)c3ccccc23)CCO1 (stereo not drawn)
85 to 90 °C

One more compound: FC(F)(F)c1n[nH]cc1-c1nc(Nc2ccccn2)cs1
204 to 206 °C

One more compound: Cc1cc2cc(CN3CCC(CC(N)=O)CC3)cnc2cc1NC(=O)c1ccc(-c2ccc(F)cc2)cc1
249 °C

One more compound: CCCC(C)(Oc1ccccc1)C(=O)OC1CC(O)C=C2C=CC(C)C(CCC3CC(O)CC(=O)O3)C21 (mixture of isomers)
151 to 153 °C

One more compound: CC(=O)NCc1ccc(CN2CCN(c3ccc(F)cc3)CC2)cc1N
163 to 164 °C

One more compound: Cc1nn(-c2cc(OC(C)C)c(Cl)cc2Cl)c(C)c1C
56 to 58 °C

One more compound: COc1cc2c(cc1OC)C1Cc3cc(OC)c(OC(=O)C=Cc4cc(OC)c(OC)c(OC)c4)cc3CN1CC2 (stereo not drawn)
207 to 210 °C

One more compound: CCOC(=O)NC(C(=O)OC)C(c1ccccc1)c1ccccc1 (stereo not drawn)
107 to 109 °C

One more compound: Cc1onc(-c2ccccc2)c1-c1ccc(S(=O)(=O)NC(=O)CC(C)(C)SN=O)cc1
138 to 140 °C

One more compound: FC(F)(F)c1nc2cc(Cl)c(Cl)cc2[nH]1
225 to 230 °C

One more compound: CN(Cc1ccc(NC(=O)C2=Cc3cc(-c4ccsc4)ccc3OCC2)cc1)C1CCOCC1
194 to 195 °C

One more compound: CCOC(=O)C(=CNC1CC1)C(=O)c1cc(F)c(F)c(Cl)c1F
78 to 80 °C

One more compound: CN(C)c1n[nH]c(-c2ccc(Cl)cc2)c1CC(=O)O
157 to 168 °C

One more compound: CC1(C)OC[C@H](Cc2ccccc2)N1C(=O)C(=O)c1ccn(-c2ccc(-c3ccccc3)cc2)c1
150 to 152 °C

One more compound: CC(C)(O)C1CCN(Cc2ccc(C#CC(=O)Nc3ccc(-c4ccc(Cl)cc4)cc3)cc2)CC1
194 to 195 °C

One more compound: Fc1ccc(C2=CCC3(CC2)OCCO3)cc1
84 to 85 °C

One more compound: C=CCOC(=O)c1ccc(-c2ccc3cc(OCCCCC(=O)OCC)c(C45CC6CC(CC(C6)C4)C5)cc3c2)cc1
117 to 118 °C

One more compound: N#CC1CN(c2c(F)cc3c(=O)c(C(=O)O)cn(C4CC4)c3c2F)C1
> 325 °C

One more compound: COc1cc(CNC(=S)NC(COC(=O)C(C)(C)C)Cc2ccc(C)c(C)c2)ccc1O (stereo not drawn)
43 to 48 °C

One more compound: C#CCN(C(C)=O)c1cccc(-c2ccc3nncn3n2)c1
195 to 198 °C

One more compound: NC(=O)c1ccccc1NC(=O)c1ccc2c(c1)CCO2
230 to 235 °C

* * *

Record form. Attribute: melting point. Fill in for each entry.

Query: melting point; subject: CC1(O)CC(=O)OC(c2ccc(-c3ccccc3)cc2)C1 (stereo not given)
151 to 153 °C

One more compound: COc1cc(CCc2ccc(N)cc2)cc(OC)c1OC
84 to 85 °C

One more compound: O=[N+]([O-])c1ccc(F)cc1CS(=O)(=O)c1ccccc1
169 to 171 °C

One more compound: NS(=O)(=O)c1ccc(-c2c(-c3ccccc3)noc2COCC(F)(F)C(F)(F)C(F)(F)CO[N+](=O)[O-])cc1
38 to 39 °C

One more compound: CCOC(=O)C=Cc1cc(Cl)ccc1Cl
34 to 36 °C

* * *

Record form. Attribute: melting point. Fill in for each entry.

Query: melting point; subject: O=c1oc(-c2ccc(CCc3ccccc3)cc2)cc(O)c1SCCc1ccccc1
122 to 123 °C

One more molecule: CC(=O)NC[C@H]1CN(c2ccc3c(c2)CC[C@@H](C)N3C=O)C(=O)O1
89 to 91 °C

One more molecule: COc1ccc(-c2cnc3c(-c4ccsc4)cnn3c2)cc1
191 to 193 °C

One more molecule: CCC(CC)n1cnc2c(Oc3c(C)cc(C)cc3C)nc(C)cc21
127 to 131 °C

One more molecule: COc1ccc(C(=O)Nc2c(Cl)cncc2Cl)c2c1OCC2CC(=O)Nc1c(Cl)cncc1Cl (stereo unspecified)
> 300 °C

One more molecule: CS(=O)(=O)c1cc(F)cc(Cc2cc3cccc(-c4cccc(C(=O)NCC(N)=O)c4)c3s2)c1
160 to 161 °C

One more molecule: NC(=O)CN1C(=O)C[C@@H]2CCC[C@@H]21 (relative stereo)
142 to 144 °C

One more molecule: CCCCc1ncc(/C=C(/C(=O)O)C(Cc2ccccc2)c2cccs2)n1Cc1ccccc1Cl (stereo unspecified)
200 to 202 °C

One more molecule: CCS(=O)(=O)Nc1cc(N=c2sc(=S)n3n2CCCC3)c(F)cc1Cl
146 to 148 °C

One more molecule: COC(=O)c1sc2ccc(NC=O)cc2c1N
202 to 204 °C

One more molecule: CCCC(C)C(=O)Nc1cccc(O)c1 (stereo unspecified)
136 to 137 °C

One more molecule: CC(=O)Nc1ccc(SCc2nc3ccccc3s2)cc1
147 to 149 °C

One more molecule: CC(O)c1ccc(NS(C)(=O)=O)c(Sc2ccc(Cl)cc2Cl)c1 (stereo unspecified)
91 to 94 °C

One more molecule: COC(=O)c1ccc(CN2CCC(=O)C(C(c3ccccc3)c3ccccc3)C2)cc1 (stereo unspecified)
107 to 108 °C

One more molecule: CC1(C)C2CC[C@]1(C)C(=O)C(C(=O)Nc1ccc([N+](=O)[O-])cc1)C2=O (stereo partly specified)
168 to 170 °C

One more molecule: CCCC(Nc1ccc(OCc2ccccc2)cc1)C(=O)OCC (stereo unspecified)
68 °C

One more molecule: O=C(Cn1nnnc1-c1ccccc1)OCCO
54 to 55 °C

One more molecule: CCn1nc(-c2cccc(F)c2)c(C(C)=O)c(Nc2cccc3ncccc23)c1=O
205 to 207 °C

One more molecule: O=[N+]([O-])c1ccc2nc(Cl)nc(-c3ccccc3Cl)c2c1
228 °C

One more molecule: CCC[C@H]1[C@@H](O)CC(=O)N1c1ccc(C#N)c(Cl)c1
143 to 146 °C

One more molecule: O=c1oc(=O)n(Cc2ccccc2)c2ccc(F)cc12
95 °C
